- Measurement Target: T1, hIL-1RAP(1-367)_F-chLys_Avi (human, biotinylated (Avi tag) in SPR and ELISA binning; unlabeled in SET)
- T1 construct: also called human IL-1RAcP (AG-12210)
- Assay Overview: solution equilibrium titration (SET), ECL read-out, IgG
Provide the recorded pKd for the entries that follow.
Answers are plain numbers, as −log10 of the molar value.

Consider the worked cases shown below.
>  <Binder>
R001032 (1A05) (antibody, human IgG1, kappa, V domains shown, Rabbit variable domains of prior art 1A05 on human IgG1 kappa constant regions with AEASS; also called P013.S.01.B.A05) VH: LEQSGGGAEGGLVKPGGSLELCCKASGFSLSTSYWRCWVRQAPGKGLEWIGCIYAGSGDVTYYANWVNGRFTLSRDIDQSTGCLQLNSLTAADTAMYYCASGVGFGYFNLWGQGTLVTVSS VL: ALVMTQTPSPVSAAVGGTVTINCQASEDIYSNLAWFQQKPGQPPKLLIYDASTLASGVPSRFSGSGSGTEFTLTISGLQSDDAATYYCLGVYTHISADNAFGGGTEVVVKR

>  <pKd>
10.96

$$$$
>  <Binder>
Y024148_h_IgG1f_AEASS (antibody, V domains shown, Human IgG1f with AEASS effector-silencing residues, kappa light chain) VH: EVQLVESGGGLVQPGGSLRLSCAASGGTIGGSAVHWVRQAPGKGLVWVSRILTYSSTTQYAESVKGRFTISRDNAKNTLYLQMNSLRAEDTAVYYCARGSSEYPKFDIWGQGTLVTVSS VL: DIQMTQSPSTLSASVGDRVTITCRASQSISSWLAWYQQKPGKAPKLLIYDASSLESGVPSRFSGSGSGTEFTLTISSLQPEDFATYYCHQLLIYPHTFGQGTKVEIKR

>  <pKd>
11.70

$$$$

Return reported pKd; argument: R001031 (CAN04) (antibody, human IgG1, kappa, V domains shown, Variable domains of prior art CAN04 on human IgG1 kappa constant regions with AEASS) VH: QVQLVQSGAEVKKPGSSVKVSCKASGYAFSSSWMNWVRQAPGQGLEWMGRIYPGDGNTHYAQKFQGRVTLTADKSTSTAYMELSSLRSEDTAVYYCGEGYLDPMDYWGQGTLVTVSS VL: DIQMTQSPSSLSASVGDRVTITCSASQGINNYLNWYQQKPGKAPKLLIHYTSGLHAGVPSRFSGSGSGTDYTLTISSLQPEDVATYYCQQYSILPWTFGGGTKVEIKR
10.68
